protocol: Selectivity index, ratio of IC50 for rat L6 cells to IC50 for Trypanosoma brucei rhodesiense STIB900 bloodstream forms
Type: toxicity, cell-based
measurement_context: read-out: Ratio IC50
Grouping rule (selectivity ratio): Low (below 20), Medium (20 to below 50), High (50 or more)

[
  {
    "molecule": "CCCN(CCC)CCN1CCN(c2ccnc3cc(Cl)ccc23)CC1",
    "assigned_class": "High"
  },
  {
    "molecule": "Clc1ccc2c(NCCNCCN3CCCCCC3)ccnc2c1",
    "assigned_class": "High"
  },
  {
    "molecule": "CCCN(CCC)CC(=O)N1CCN(c2ccnc3cc(Cl)ccc23)CC1",
    "assigned_class": "Medium"
  },
  {
    "molecule": "CCCN(CCC)CC(=O)NCCNc1ccnc2cc(Cl)ccc12",
    "assigned_class": "Medium"
  },
  {
    "molecule": "Clc1ccc2c(N3CCN(CCN4CCCCCC4)CC3)ccnc2c1",
    "assigned_class": "Low"
  },
  {
    "molecule": "CCCN(CCC)CCNc1ccnc2cc(Cl)ccc12",
    "assigned_class": "High"
  },
  {
    "molecule": "CN1CCN(CCNc2ccnc3cc(Cl)ccc23)CC1",
    "assigned_class": "Medium"
  },
  {
    "molecule": "Clc1ccc2c(NCCN3CCCCCC3)ccnc2c1",
    "assigned_class": "Medium"
  },
  {
    "molecule": "O=C(CN1CCCC1)NCCNc1ccnc2cc(Cl)ccc12",
    "assigned_class": "High"
  },
  {
    "molecule": "O=C(CN1CCCCC1)NCCNc1ccnc2cc(Cl)ccc12",
    "assigned_class": "Low"
  },
  {
    "molecule": "Nc1nc(N)nc(Nc2ccc([As]3SCC(CO)S3)cc2)n1 (stereo unspecified) [MELARSOPROL]",
    "assigned_class": "High"
  },
  {
    "molecule": "Clc1ccc2c(NCCCN3CCCCCC3)ccnc2c1",
    "assigned_class": "Medium"
  },
  {
    "molecule": "CN1CCN(CC(=O)NCCNc2ccnc3cc(Cl)ccc23)CC1",
    "assigned_class": "Low"
  },
  {
    "molecule": "CN1CCN(CCCNc2ccnc3cc(Cl)ccc23)CC1",
    "assigned_class": "Low"
  },
  {
    "molecule": "CN1CCN(CC(=O)N2CCN(c3ccnc4cc(Cl)ccc34)CC2)CC1",
    "assigned_class": "Medium"
  }
]
